Where do the numbers come from? From patent US20250368627A1.

# Test system: HCT116 human colorectal carcinoma cells
# methodNotes: CellTiter-Glo Luminescent Cell Viability Assay
# Format: cell-based
# settings: HCT-116, 72 h, 3 days
pEC50: −log10 of the molar value.
Reported pEC50 values follow for various compounds

[
  {
    "compoundStructure": "Cc1ccc(NS(=O)(=O)c2cnn(C3(C)COC3)c2)c2[nH]cc(C#N)c12",
    "pEC50": "> 6.60"
  },
  {
    "compoundStructure": "N#Cc1c[nH]c2c(NS(=O)(=O)c3cnn(CC4(O)CCC4)c3)ccc(Cl)c12",
    "pEC50": "6.00 to 6.60"
  },
  {
    "compoundStructure": "CC(C)(C)OC(=O)N1CC(n2cc(S(=O)(=O)Nc3cccc4c(Cl)c[nH]c34)cn2)C1",
    "pEC50": "6.00 to 6.60"
  },
  {
    "compoundStructure": "COCCOCCOCCn1cc(S(=O)(=O)Nc2cccc3c(Cl)c[nH]c23)cn1",
    "pEC50": "< 6.00"
  },
  {
    "compoundStructure": "CC(C)(CO)n1cc(S(=O)(=O)Nc2cccc3c(C#N)c[nH]c23)cn1",
    "pEC50": "6.00 to 6.60"
  },
  {
    "compoundStructure": "N#Cc1c[nH]c2c(NS(=O)(=O)c3cnn(C(CO)(CO)CCl)c3)ccc(Cl)c12",
    "pEC50": "6.00 to 6.60"
  },
  {
    "compoundStructure": "Cc1ccc(NS(=O)(=O)c2cnn(CCCF)c2)c2[nH]cc(C#N)c12",
    "pEC50": "> 6.60"
  },
  {
    "compoundStructure": "CC(=O)N1CC(n2cc(S(=O)(=O)Nc3cccc4c(Cl)c[nH]c34)cn2)C1",
    "pEC50": "< 6.00"
  }
]

---

# pEC50 per entry
# Test system: HCT116 human colorectal carcinoma cells
# methodNotes: CellTiter-Glo Luminescent Cell Viability Assay
# Type: cell-based
# settings: HCT-116, 72 h, 3 days
pEC50: −log10 of the molar value.

[
  {
    "molecule": "Cn1ncc(S(=O)(=O)Nc2ccc(Cl)c3c(C#N)c[nH]c23)c1C(F)F",
    "pEC50": "6.00 to 6.60"
  },
  {
    "molecule": "Cc1ccc(NS(=O)(=O)c2cnn(CC(F)F)c2N)c2[nH]cc(C#N)c12",
    "pEC50": "> 6.60"
  },
  {
    "molecule": "Cn1ncc(S(=O)(=O)Nc2cccc3c(C#N)c[nH]c23)c1N",
    "pEC50": "6.00 to 6.60"
  },
  {
    "molecule": "Cn1ncc(S(=O)(=O)Nc2ccc(Cl)c3c(C#N)c[nH]c23)c1F",
    "pEC50": "> 6.60"
  },
  {
    "molecule": "Cc1ccc(NS(=O)(=O)c2cnn([C@@H](CO)C(F)F)c2)c2[nH]cc(C#N)c12",
    "pEC50": "6.00 to 6.60"
  },
  {
    "molecule": "Cc1ccc(NS(=O)(=O)c2cnn(C(C)CC(C)(C)O)c2)c2[nH]cc(C#N)c12 (stereo not shown)",
    "pEC50": "> 6.60"
  },
  {
    "molecule": "Cc1ccc(NS(=O)(=O)c2cnn(CC(C)(C)CO)c2)c2[nH]cc(C#N)c12",
    "pEC50": "> 6.60"
  },
  {
    "molecule": "Cc1ccc(NS(=O)(=O)c2cnn(C3(C)COC3)c2F)c2[nH]cc(C#N)c12",
    "pEC50": "> 6.60"
  },
  {
    "molecule": "O=S(=O)(Nc1ccc(Cl)c2c(Cl)c[nH]c12)c1cnn(C(CO)(CO)CCl)c1",
    "pEC50": "6.00 to 6.60"
  },
  {
    "molecule": "N#CCC1(n2cc(S(=O)(=O)Nc3ccc(Cl)c4c(C#N)c[nH]c34)cn2)COC1",
    "pEC50": "6.00 to 6.60"
  },
  {
    "molecule": "Cc1ccc(NS(=O)(=O)c2cnn(C34CC(C3)C4)c2)c2[nH]cc(C#N)c12",
    "pEC50": "6.00 to 6.60"
  },
  {
    "molecule": "Cc1ccc(NS(=O)(=O)c2cnn(C3CC(F)(F)C3)c2)c2[nH]cc(C#N)c12",
    "pEC50": "6.00 to 6.60"
  },
  {
    "molecule": "Cc1ccc(NS(=O)(=O)c2cnn(C(C)(C)CO)c2)c2[nH]cc(C#N)c12",
    "pEC50": "> 6.60"
  },
  {
    "molecule": "Cc1ccc(NS(=O)(=O)c2cnn(C3(CO)COC3)c2)c2[nH]cc(C#N)c12",
    "pEC50": "6.00 to 6.60"
  },
  {
    "molecule": "CC(C)(C)OC(=O)NCCn1cc(S(=O)(=O)Nc2cccc3c(Cl)c[nH]c23)cn1",
    "pEC50": "< 6.00"
  },
  {
    "molecule": "N#Cc1c[nH]c2c(NS(=O)(=O)c3cn[nH]c3)ccc(F)c12",
    "pEC50": "< 6.00"
  },
  {
    "molecule": "Cc1ccc(NS(=O)(=O)c2cnn([C@H](C)CO)c2)c2[nH]cc(C#N)c12",
    "pEC50": "> 6.60"
  },
  {
    "molecule": "O=S(=O)(Nc1cccc2c(Cl)c[nH]c12)c1cnn(CCO)c1",
    "pEC50": "6.00 to 6.60"
  },
  {
    "molecule": "Cc1ccc(NS(=O)(=O)c2cnn(C3CCC3)c2)c2[nH]cc(C#N)c12",
    "pEC50": "6.00 to 6.60"
  },
  {
    "molecule": "O=S(=O)(Nc1cccc2c(Cl)c[nH]c12)c1cnn(CC2CNC2)c1",
    "pEC50": "< 6.00"
  },
  {
    "molecule": "Cn1ncc(S(=O)(=O)Nc2ccc(F)c3c(C#N)c[nH]c23)c1N",
    "pEC50": "6.00 to 6.60"
  },
  {
    "molecule": "Cc1ccc(NS(=O)(=O)c2cnn(CC(F)F)c2)c2[nH]cc(Cl)c12",
    "pEC50": "> 6.60"
  },
  {
    "molecule": "Cc1ccc(NS(=O)(=O)c2cnn(CCO)c2)c2[nH]cc(C#N)c12",
    "pEC50": "6.00 to 6.60"
  },
  {
    "molecule": "N#Cc1c[nH]c2c(NS(=O)(=O)c3cnn(CC(F)(F)F)c3)ccc(F)c12",
    "pEC50": "6.00 to 6.60"
  },
  {
    "molecule": "CC(C)(CO)n1cc(S(=O)(=O)Nc2ccc(F)c3c(C#N)c[nH]c23)cn1",
    "pEC50": "6.00 to 6.60"
  },
  {
    "molecule": "Cc1ccc(NS(=O)(=O)c2c[nH]nc2N)c2[nH]cc(C#N)c12",
    "pEC50": "6.00 to 6.60"
  },
  {
    "molecule": "N#Cc1c[nH]c2c(NS(=O)(=O)c3cnn(C4COC4)c3)ccc(Cl)c12",
    "pEC50": "6.00 to 6.60"
  },
  {
    "molecule": "N#Cc1c[nH]c2c(NS(=O)(=O)c3cnn(C4(CO)CC4)c3)ccc(Cl)c12",
    "pEC50": "6.00 to 6.60"
  },
  {
    "molecule": "N#Cc1c[nH]c2c(NS(=O)(=O)c3cnn(C45CC(C4)C5)c3)ccc(Cl)c12",
    "pEC50": "6.00 to 6.60"
  },
  {
    "molecule": "Cn1cc(S(=O)(=O)Nc2ccc(C(F)(F)F)c3c(C#N)c[nH]c23)cn1",
    "pEC50": "6.00 to 6.60"
  },
  {
    "molecule": "Cc1ccc(NS(=O)(=O)c2cn[nH]c2)c2[nH]cc(C#N)c12",
    "pEC50": "6.00 to 6.60"
  },
  {
    "molecule": "Cc1ccc(NS(=O)(=O)c2cnn(CC3(C)COC3)c2)c2[nH]cc(C#N)c12",
    "pEC50": "6.00 to 6.60"
  },
  {
    "molecule": "Cc1ccc(NS(=O)(=O)c2cnn(C[C@@H](C)CO)c2)c2[nH]cc(C#N)c12",
    "pEC50": "> 6.60"
  },
  {
    "molecule": "Cc1ccc(NS(=O)(=O)c2cnn(CC3CC3(F)F)c2)c2[nH]cc(C#N)c12 (stereo not shown)",
    "pEC50": "6.00 to 6.60"
  }
]

---

# testTarget: DDB1DB/DCAF15 and RBM39 R1R2 complex (Homo sapiens, UniProt Q14498+Q66K64)
# Construct: Amino acids 150 to 331 of RBM39 were cloned into pGEX4T3; GST (from vector pGEX4T3); TEV cleavage site (N); RBM39 R1R2: E. coli (pGEX4T3)
# Sequence (Q66K64 whole entry, the tested form may be a part): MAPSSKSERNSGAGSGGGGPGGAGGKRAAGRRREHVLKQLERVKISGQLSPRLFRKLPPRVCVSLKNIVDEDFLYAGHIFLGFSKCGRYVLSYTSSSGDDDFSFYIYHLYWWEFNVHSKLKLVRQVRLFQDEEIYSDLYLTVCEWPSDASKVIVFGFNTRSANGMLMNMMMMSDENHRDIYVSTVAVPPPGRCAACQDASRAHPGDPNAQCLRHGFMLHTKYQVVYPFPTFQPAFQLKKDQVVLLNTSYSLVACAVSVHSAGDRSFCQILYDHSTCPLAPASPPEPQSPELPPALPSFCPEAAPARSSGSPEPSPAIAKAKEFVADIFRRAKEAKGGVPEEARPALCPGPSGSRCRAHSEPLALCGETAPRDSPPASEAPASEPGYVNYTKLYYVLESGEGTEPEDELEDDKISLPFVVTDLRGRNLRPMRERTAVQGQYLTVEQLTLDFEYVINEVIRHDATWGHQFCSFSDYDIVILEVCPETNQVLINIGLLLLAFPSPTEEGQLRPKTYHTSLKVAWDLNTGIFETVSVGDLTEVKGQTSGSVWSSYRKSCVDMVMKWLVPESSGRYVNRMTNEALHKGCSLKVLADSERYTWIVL
# Sequence (Q14498 150-331): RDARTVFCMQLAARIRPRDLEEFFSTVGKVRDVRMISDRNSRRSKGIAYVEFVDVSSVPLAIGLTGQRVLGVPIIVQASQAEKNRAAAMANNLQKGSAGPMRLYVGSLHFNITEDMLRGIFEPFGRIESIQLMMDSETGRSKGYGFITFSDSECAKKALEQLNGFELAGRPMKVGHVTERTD
# Sequence (Q16531 with tags, fused parts or gaps DEL396-708 partner): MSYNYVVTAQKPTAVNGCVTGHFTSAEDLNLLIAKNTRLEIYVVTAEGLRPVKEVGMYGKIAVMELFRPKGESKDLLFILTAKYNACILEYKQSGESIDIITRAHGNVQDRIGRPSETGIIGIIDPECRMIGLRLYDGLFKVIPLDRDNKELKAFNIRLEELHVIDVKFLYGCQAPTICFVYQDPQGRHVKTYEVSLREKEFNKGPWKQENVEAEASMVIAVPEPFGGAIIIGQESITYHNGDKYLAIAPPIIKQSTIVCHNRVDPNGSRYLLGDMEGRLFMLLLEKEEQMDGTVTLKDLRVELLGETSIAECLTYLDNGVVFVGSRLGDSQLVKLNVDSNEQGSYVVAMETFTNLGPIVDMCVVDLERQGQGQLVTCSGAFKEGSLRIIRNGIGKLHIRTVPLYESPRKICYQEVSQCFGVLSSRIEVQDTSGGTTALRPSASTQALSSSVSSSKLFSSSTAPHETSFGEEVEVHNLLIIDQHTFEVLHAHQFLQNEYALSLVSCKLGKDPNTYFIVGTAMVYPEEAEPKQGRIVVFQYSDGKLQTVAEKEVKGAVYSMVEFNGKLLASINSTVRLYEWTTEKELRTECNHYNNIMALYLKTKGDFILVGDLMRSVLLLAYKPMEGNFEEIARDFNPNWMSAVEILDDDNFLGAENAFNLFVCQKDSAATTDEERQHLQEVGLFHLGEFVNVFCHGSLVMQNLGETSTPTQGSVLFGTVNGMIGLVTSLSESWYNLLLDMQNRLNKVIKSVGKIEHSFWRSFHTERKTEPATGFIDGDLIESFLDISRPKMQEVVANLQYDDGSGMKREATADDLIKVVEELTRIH
# methodNotes: DCAF15 RBM39 Complex Formation Assay (FRET)
# settings: FRET ratio Em 665/Em 615, incubated overnight at 4° C.
recordedMetric: IC50

[
  {
    "compoundStructure": "CC(C)(C)OC(=O)NCCn1cc(S(=O)(=O)Nc2cccc3c(Cl)c[nH]c23)cn1",
    "reading": "250 to 1000 nM"
  },
  {
    "compoundStructure": "Cc1ccc(NS(=O)(=O)c2cnn([C@H]3C[C@@H](O)C3)c2)c2[nH]cc(C#N)c12",
    "reading": "< 250 nM"
  },
  {
    "compoundStructure": "COC(=O)Cn1cc(S(=O)(=O)Nc2ccc(C)c3c(C#N)c[nH]c23)cn1",
    "reading": "< 250 nM"
  },
  {
    "compoundStructure": "N#Cc1c[nH]c2c(NS(=O)(=O)c3cnn(C4(CO)CCC4)c3)ccc(Cl)c12",
    "reading": "< 250 nM"
  },
  {
    "compoundStructure": "Cc1ccc(NS(=O)(=O)c2cnn(CC(=O)N3C[C@@H](F)[C@@H](F)C3)c2)c2[nH]cc(C#N)c12",
    "reading": "< 250 nM"
  },
  {
    "compoundStructure": "Cc1ccc(NS(=O)(=O)c2cnn(CC(C)(C)CO)c2)c2[nH]cc(C#N)c12",
    "reading": "< 250 nM"
  },
  {
    "compoundStructure": "Cc1ccc(NS(=O)(=O)c2cnn(CC3(F)CNC3)c2)c2[nH]cc(C#N)c12",
    "reading": "< 250 nM"
  },
  {
    "compoundStructure": "Cn1cc(S(=O)(=O)Nc2ccc(Cl)c3c(Cl)c[nH]c23)cn1",
    "reading": "< 250 nM"
  },
  {
    "compoundStructure": "N#Cc1c[nH]c2c(NS(=O)(=O)c3c[nH]nc3N)ccc(F)c12",
    "reading": "< 250 nM"
  },
  {
    "compoundStructure": "Cc1ccc(NS(=O)(=O)c2cnn([C@H](C)[C@H](C)O)c2)c2[nH]cc(C#N)c12",
    "reading": "< 250 nM"
  },
  {
    "compoundStructure": "Cn1cc(S(=O)(=O)Nc2ccc(F)c3c(C#N)c[nH]c23)cn1",
    "reading": "< 250 nM"
  },
  {
    "compoundStructure": "CC(C)(CO)n1cc(S(=O)(=O)Nc2ccc(F)c3c(C#N)c[nH]c23)cn1",
    "reading": "< 250 nM"
  },
  {
    "compoundStructure": "Cc1ccc(NS(=O)(=O)c2cnn(CC3(C)COC3)c2)c2[nH]cc(C#N)c12",
    "reading": "< 250 nM"
  },
  {
    "compoundStructure": "Cc1ccc(NS(=O)(=O)c2cnn(C(C)(C)CO)c2)c2[nH]cc(C#N)c12",
    "reading": "< 250 nM"
  },
  {
    "compoundStructure": "O=S(=O)(Nc1cccc2c(Cl)c[nH]c12)c1cnn(CC2CNC2)c1",
    "reading": "< 250 nM"
  },
  {
    "compoundStructure": "O=S(=O)(Nc1cccc2c(Cl)c[nH]c12)c1cn[nH]c1",
    "reading": "< 250 nM"
  },
  {
    "compoundStructure": "Cc1ccc(NS(=O)(=O)c2cnn([C@H](CO)CF)c2)c2[nH]nc(C#N)c12",
    "reading": "< 250 nM"
  }
]
